Entries and their TIMS collisional cross section values follow.
# PROTOCOL TEXT: TIMS collisional cross section (CCS, N2) of the lipid ion; higher = larger ion cross section
# RUN CONDITIONS: sample type: Liver; ionization mode: positive; one isomer drawn
Quick reminder: number only, in Å², skip the unit.

CCCCCC/C=C\CCCCCCCC(=O)O[C@H](COC(=O)CCCCCCCCCCC)COC(=O)CCCCCCCCCCCCCCCC [TG 12:0_16:1_17:0] (ion (formula + adduct): [C48H90O6+NH4] 1+) ... 303

Lookup: Consider the compound CCCCCCCCCCCCCCCC(=O)OC[C@@H](COC(=O)CCCCCCCCCCCCC)OC(=O)CCCCCCCCCCCCCCC [TG 14:0_16:0_16:0] (ion (formula + adduct): [C49H94O6+NH4] 1+) and give its recorded TIMS collisional cross section.
Found: 308.4

Lookup: Quote TIMS collisional cross section reported for CCCCCCCCCCCCC/C=C/[C@@H](O)[C@H](CO[C@@H]1O[C@H](CO)[C@@H](O)C(O)C1O)NC(=O)CCCCCCCCCCCCCCCCCCCCCC (stereo partly drawn) [GlcCer d18:1_23:0@] (ion (formula + adduct): [C47H91NO8+H] 1+) please.
Found: 301.2

====

# PROTOCOL TEXT: TIMS collisional cross section (CCS, N2) of the lipid ion; higher = larger ion cross section
# RUN CONDITIONS: sample type: Liver; ionization mode: positive; one isomer drawn
Binary classification by TIMS collisional cross section, with 300 Å² as an inclusive lower bound for YES; all other cases are NO.

CCCCC/C=C\C/C=C\CCCCCCCCCC(=O)O[C@H](COC(=O)CCCCCCC/C=C\C/C=C\CCCCC)COC(=O)CCCCCCCCCCCCCCCCCCCCC [TG 18:2_20:2_22:0] (ion (formula + adduct): [C63H114O6+NH4] 1+) ... YES
CCCCCCC/C=C\CCCCCCCC(=O)OC[C@H](COC(=O)CCCCCCC/C=C\CCCCCCCC)OC(=O)CCCCCCCCCCCCCCCCC [TG 17:1_18:0_18:1] (ion (formula + adduct): [C56H104O6+NH4] 1+) ... YES
CCCCC/C=C\C=C\CCCCCCCCC(=O)O[C@H](COC(=O)CCCCCCCCCCCCCCC)COP(=O)([O-])OCC[N+](C)(C)C [PC 16:0@_18:2] (ion (formula + adduct): [C42H80NO8P+H] 1+) ... NO
CCCCC/C=C\CCCCCCCC(=O)OC[C@H](COC(=O)CCCCCCCCCCCCCCCC)OC(=O)CCCCCCC/C=C\CCCCCC [TG 15:1_16:1_17:0] (ion (formula + adduct): [C51H94O6+NH4] 1+) ... YES

Lookup: Is the recorded value of TIMS collisional cross section equal to or greater than 300 Å² for this compound? CCCCC/C=C\C/C=C\CCCCCCCC(=O)OC[C@@H](COC(=O)CCCCCCCCCCCCCC)OC(=O)CCCCCCCCCCCCCCC [TG 15:0_16:0_18:2] (ion (formula + adduct): [C52H96O6+NH4] 1+)
Found: YES

====

# PROTOCOL TEXT: TIMS collisional cross section (CCS, N2) of the lipid ion; higher = larger ion cross section
# RUN CONDITIONS: sample type: HeLa; ionization mode: positive; one isomer drawn
OUTCOME MEASURE: TIMS collisional cross section (Å²)
State the answer as a number, implicitly in Å².

CC/C=C/C/C=C/C/C=C/C/C=C/C/C=C/C/C=C/CCC(=O)O[C@H](COC(=O)CCCCCCCCCCCCCCC)COP(=O)([O-])OCC[N+](C)(C)C [PC 16:0_22:6] (ion (formula + adduct): [C46H80NO8P+H] 1+) ... 291.8
CC/C=C\C/C=C\C/C=C\C/C=C\C/C=C\C/C=C\CCC(=O)OC[C@H](COP(=O)([O-])OCC[N+](C)(C)C)OC(=O)CC/C=C\C/C=C\C/C=C\C/C=C\C/C=C\C/C=C\CC [PC 22:6_22:6] (ion (formula + adduct): [C52H80NO8P+H] 1+) ... 298.6

Consider now this further molecule.
Lookup: Write down TIMS collisional cross section measured for item CCCCC/C=C\C/C=C\C/C=C\C/C=C\C/C=C\CCC(=O)O[C@H](COC(=O)CCCCCCCCCCCCCCCCC)COP(=O)([O-])OCC[N+](C)(C)C [PC 18:0@_22:5] (ion (formula + adduct): [C48H86NO8P+H] 1+)
Found: 298.9

These entries and their values trace back to the supplement of paper PMC6965134.
